Tested on: MALME-3M melanoma
runDescription: NCI-60 one-dose screen, 48 h (100 = growth as untreated, 0 = no growth, -100 = all killed)
studyConditions: 10 µM unless noted
Experimental: Cells are grown in 96 well plates and exposed to the test compound for 48 hours. Compounds are tested at a single concentration, which is 10^-5 M for most compounds. The reported endpoint is percent growth (GI% or GIPRCNT), where numbers from 0 - 100% represent growth inhibition, and numbers from -100% - 0 represent cell death. For example, a value of 40 represents 60% growth inhibition. A value of 0 means no net growth occurred over the course of the experiment. […]
The panel holds about 83,000 compounds, 20% with a hit somewhere; the sample as a whole holds those more often.
measure: growth (%)
Just the number please, in %, no unit attached.

CC(C)C1CCC(C)C(O)C1 (centres undefined); 109
Cc1c(Cl)cccc1NC(=S)NC(=O)c1ccccc1; 89.4
CCCCN(C=S)CCCC; 101

Inquiry: Bench note: what growth did COC1OC(C(O)C(O)CO)C(O)C(O)C1O (centres undefined) show?
Reply text: 101

Inquiry: What about C=CCC(OC(C)=O)c1ccc(OC)c(OC)c1 (centres undefined) ?
Reply text: 124

====

System: IGROV1 ovarian
runDescription: NCI-60 one-dose screen, 48 h
studyConditions: 10 µM unless noted
The panel holds about 83,000 compounds, 20% with a hit somewhere; the sample as a whole holds those more often. Activity calls are given as the source filed them. The calls were made as follows: active = growth percent below 10; inactive = the rest.
Select the matching outcome among 1 = active, -1 = inactive

Recorded results for 10 compounds are shown here.
CCOC(=N)CC(=O)Nc1cccc(C)c1Cl; -1
C/C(O)=C(/C=N/C(=S)Nc1ccccc1)C(=O)Nc1ccccc1C; -1
COc1cc(N)c2ncccc2c1Cl; -1
CCOC(=O)CSCCC#N; -1
CC1(C)CCC(C)(C)NC(=S)N1; -1
NC(=S)N/N=C/c1ccc(OC(=O)COc2ccc(Cl)cc2)cn1; -1
Cc1cc2c3ccc(C)[n+](C)c3ccc2n1C; -1
CS(=O)(=O)c1ccc(/C=C\C(=O)O)cc1; -1
Nc1c(Br)cc(O)c2c1C(=O)c1ccccc1C2=O; -1
COC1OC(CO)C(OC)C(O)C1O (configuration not stated); -1

Inquiry: Outcome? CCC12OC(COc3ccccc3)CN1CCN2c1ccccc1 (configuration not stated)
Reply text: -1

Inquiry: What about c1cc(CNCCNCc2ccncc2)ccn1 ?
Reply text: -1

Inquiry: What about CCCCCC/C=C\CCCCCCCCCc1cc(O)cc(OC)c1O ?
Reply text: 1

Inquiry: What about Oc1cccc(CNC2CCCCC2)c1 ?
Reply text: -1

Inquiry: What about N=C(N)c1nn(C2OC(CO)C(O)C2O)c2nc[nH]c(=O)c12 (configuration not stated) ?
Reply text: -1

Inquiry: What about CN(C)Cc1ccccn1 ?
Reply text: -1

Inquiry: What about O=C(O)c1cccc(-n2ncc(Cl)c(Cl)c2=O)c1 ?
Reply text: -1

====

Measured growth of individual entries
System: NCI-H322M lung
runDescription: NCI-60 one-dose screen, 48 h (100 = growth as untreated, 0 = no growth, -100 = all killed)
studyConditions: 10 µM unless noted
This is part of a sample that, as a whole, favours compounds with a hit. Of some 83,000 tested, about 20% had one in any assay.
Just the number please, in %, no unit attached.

For orientation, consider the following solved cases.
C=CCNC(=S)N/C=C(/C(=O)c1ccccc1)c1ccccc1; 111
CC(=O)OC/C(C)=C\CC(C)COC(C)=O (centres undefined); 102
CCCNS(=O)(=O)c1ccc(Cl)cc1; 93.6

Now take the following compound into account.
Inquiry: Bench note: what growth did CCCc1cccc(CCC)c1NC(=O)Nc1cc(Cl)cc(Cl)c1 show?
Reply text: 96.8

Hey, just so you know, these numbers are from PubChem BioAssay (NCI).
